assay: Lethal dose against KB cells when treated for 30 min; type: toxicity, cell-based; settings: human, read-out: LD50
A collection of compounds and their measured CC50 at 0.5 h
Attribute Measured: CC50 at 0.5 h

Compound: COc1cc([C@@H]2c3cc4c(cc3[C@@H](Nc3ccc([N+](=O)[O-])cc3)[C@H]3COC(=O)[C@H]23)OCO4)cc(OC)c1OC(=O)C(F)(F)F
Attribute Measured: CC50 at 0.5 h
Value Measured: < 10 µM
--
Compound: COc1cc([C@@H]2c3cc4c(cc3[C@@H](Nc3ccc([N+](=O)[O-])cc3)[C@H]3COC(=O)[C@H]23)OCO4)cc(OC)c1OC(=O)CCl
Attribute Measured: CC50 at 0.5 h
Value Measured: > 10 µM
--
Compound: COc1cc([C@@H]2c3cc4c(cc3[C@@H](O[C@@H]3O[C@@H]5CO[C@@H](C)O[C@H]5[C@H](O)[C@H]3O)[C@H]3COC(=O)[C@H]23)OCO4)cc(OC)c1O [ETOPOSIDE]
Attribute Measured: CC50 at 0.5 h
Value Measured: 50 µM
--
Compound: COc1cc([C@@H]2c3cc4c(cc3[C@@H](Nc3ccc([N+](=O)[O-])cc3)[C@H]3COC(=O)[C@H]23)OCO4)cc(OC)c1OC(C)=O
Attribute Measured: CC50 at 0.5 h
Value Measured: > 20 µM
--
Compound: COc1cc([C@@H]2c3cc4c(cc3[C@@H](Nc3ccc([N+](=O)[O-])cc3)[C@H]3COC(=O)[C@H]23)OCO4)cc(OC)c1O
Attribute Measured: CC50 at 0.5 h
Value Measured: < 10 µM

====

test system: KB; test: Effective dose required for inhibition of KB-7d cell replication after 3 days of continuous treatment; format: functional; details: Homo sapiens, 72 h, read-out: ED50 (the source's name)
Entries and their EC50 values follow.
Attribute Measured: EC50 (µM)

Compound: COc1cc([C@@H]2c3cc4c(cc3[C@@H](Nc3ccc([N+](=O)[O-])cc3)[C@H]3COC(=O)[C@H]23)OCO4)cc(OC)c1OC(=O)C(F)(F)F
Value Measured: 1.5
//
Compound: COc1cc([C@@H]2c3cc4c(cc3[C@@H](Nc3ccc([N+](=O)[O-])cc3)[C@H]3COC(=O)[C@H]23)OCO4)cc(OC)c1OC(C)=O
Value Measured: 2.9
//
Compound: COc1cc([C@@H]2c3cc4c(cc3[C@@H](O[C@@H]3O[C@@H]5CO[C@@H](C)O[C@H]5[C@H](O)[C@H]3O)[C@H]3COC(=O)[C@H]23)OCO4)cc(OC)c1O [ETOPOSIDE]
Value Measured: 11
//
Compound: COc1cc([C@@H]2c3cc4c(cc3[C@@H](Nc3ccc([N+](=O)[O-])cc3)[C@H]3COC(=O)[C@H]23)OCO4)cc(OC)c1OC(=O)CCl
Value Measured: 2.3
//
Compound: COc1cc([C@@H]2c3cc4c(cc3[C@@H](Nc3ccc([N+](=O)[O-])cc3)[C@H]3COC(=O)[C@H]23)OCO4)cc(OC)c1O
Value Measured: 1.5
